This listing pairs sequences with measured protein stability index.
# System: Saccharomyces cerevisiae
# EXPERIMENT SUMMARY: protein stability index of tFT-peptide fusion (C-terminal peptide) (PSI (0-1 scale)); higher = more stable (slower turnover)
# CONDITION DETAILS: genetic background: das1 deletion; temperature: 30 C
READOUT LABEL: protein stability index

>  <SEQUENCE ENTRY>
FVFCTCSFFFLW

>  <ASSAY TARGET>
Saccharomyces cerevisiae

>  <RESULT>
0.421

$$$$
>  <SEQUENCE ENTRY>
PVLYSFSLWIHL

>  <ASSAY TARGET>
Saccharomyces cerevisiae

>  <RESULT>
0.299

$$$$
>  <SEQUENCE ENTRY>
GSRVICMVVATM

>  <ASSAY TARGET>
Saccharomyces cerevisiae

>  <RESULT>
0.463

$$$$

----------
# System: Saccharomyces cerevisiae
# EXPERIMENT SUMMARY: protein stability index of tFT-peptide fusion in wild type (PSI (0-1 scale)); higher = more stable (slower turnover)
# CONDITION DETAILS: genetic background: wild type
This listing pairs sequences with measured protein stability index.

>  <SEQUENCE ENTRY>
LVVYLSCVACGN

>  <ASSAY TARGET>
Saccharomyces cerevisiae

>  <protein stability index>
0.0824

$$$$
>  <SEQUENCE ENTRY>
LVVQLSCVACIN

>  <ASSAY TARGET>
Saccharomyces cerevisiae

>  <protein stability index>
0.0253

$$$$
>  <SEQUENCE ENTRY>
LVVYLKCVACIN

>  <ASSAY TARGET>
Saccharomyces cerevisiae

>  <protein stability index>
0.0164

$$$$

----------
# Test system: Saccharomyces cerevisiae
# EXPERIMENT SUMMARY: protein stability index of tFT-peptide fusion in wild type (PSI (0-1 scale)); higher = more stable (slower turnover)
# CONDITION DETAILS: genetic background: wild type
This listing pairs sequences with measured protein stability index.
READOUT LABEL: protein stability index

>  <SEQUENCE ENTRY>
RSLRVLLPLYFRL

>  <READOUT NUMBER>
0.194

$$$$
>  <SEQUENCE ENTRY>
PDKRNILIKLLN

>  <READOUT NUMBER>
0.165

$$$$
>  <SEQUENCE ENTRY>
LKILRPKMNHQN

>  <READOUT NUMBER>
0.541

$$$$
>  <SEQUENCE ENTRY>
GLYMESVGCWFR

>  <READOUT NUMBER>
0.415

$$$$
>  <SEQUENCE ENTRY>
AITLRMCPLLLR

>  <READOUT NUMBER>
0.389

$$$$
>  <SEQUENCE ENTRY>
CTSCGYKFWTNN

>  <READOUT NUMBER>
0.299

$$$$

----------
# Tested on: Saccharomyces cerevisiae
# EXPERIMENT SUMMARY: protein stability index of tFT-peptide fusion (C-terminal peptide) (PSI (0-1 scale)); higher = more stable (slower turnover)
# CONDITION DETAILS: genetic background: wild type; temperature: 30 C

>  <SEQUENCE ENTRY>
PIFPPLTSPSPP

>  <ASSAY TARGET>
Saccharomyces cerevisiae

>  <protein stability index>
0.68

$$$$
>  <SEQUENCE ENTRY>
IALACPGGSYIV

>  <ASSAY TARGET>
Saccharomyces cerevisiae

>  <protein stability index>
0.674

$$$$
>  <SEQUENCE ENTRY>
LWGIAGSGVLVG

>  <ASSAY TARGET>
Saccharomyces cerevisiae

>  <protein stability index>
0.635

$$$$
>  <SEQUENCE ENTRY>
AISLPVEVLAFS

>  <ASSAY TARGET>
Saccharomyces cerevisiae

>  <protein stability index>
0.383

$$$$
>  <SEQUENCE ENTRY>
SISRPSEHHLTQ

>  <ASSAY TARGET>
Saccharomyces cerevisiae

>  <protein stability index>
0.673

$$$$
>  <SEQUENCE ENTRY>
LMPPHPLFLSDI

>  <ASSAY TARGET>
Saccharomyces cerevisiae

>  <protein stability index>
0.724

$$$$
>  <SEQUENCE ENTRY>
LSFSDPLSLPRH

>  <ASSAY TARGET>
Saccharomyces cerevisiae

>  <protein stability index>
0.675

$$$$
>  <SEQUENCE ENTRY>
SLEYIFSCWSLY

>  <ASSAY TARGET>
Saccharomyces cerevisiae

>  <protein stability index>
0.711

$$$$
>  <SEQUENCE ENTRY>
GGCEWWAWGRGG

>  <ASSAY TARGET>
Saccharomyces cerevisiae

>  <protein stability index>
0.727

$$$$
>  <SEQUENCE ENTRY>
KERHRNKRKQIA

>  <ASSAY TARGET>
Saccharomyces cerevisiae

>  <protein stability index>
0.342

$$$$
>  <SEQUENCE ENTRY>
PLFPLLGLLFFF

>  <ASSAY TARGET>
Saccharomyces cerevisiae

>  <protein stability index>
0.461

$$$$
>  <SEQUENCE ENTRY>
RSSRGGFAFVYR

>  <ASSAY TARGET>
Saccharomyces cerevisiae

>  <protein stability index>
0.676

$$$$
>  <SEQUENCE ENTRY>
KRNEQQKNDRKK

>  <ASSAY TARGET>
Saccharomyces cerevisiae

>  <protein stability index>
0.653

$$$$
>  <SEQUENCE ENTRY>
QVWLEKDPQETA

>  <ASSAY TARGET>
Saccharomyces cerevisiae

>  <protein stability index>
0.691

$$$$
>  <SEQUENCE ENTRY>
NVVFGCFFPVLT

>  <ASSAY TARGET>
Saccharomyces cerevisiae

>  <protein stability index>
0.684

$$$$
>  <SEQUENCE ENTRY>
FFKNAILFVSCE

>  <ASSAY TARGET>
Saccharomyces cerevisiae

>  <protein stability index>
0.548

$$$$
>  <SEQUENCE ENTRY>
SDCWGAIIGCSG

>  <ASSAY TARGET>
Saccharomyces cerevisiae

>  <protein stability index>
0.677

$$$$
>  <SEQUENCE ENTRY>
PPSRPSASFALL

>  <ASSAY TARGET>
Saccharomyces cerevisiae

>  <protein stability index>
0.743

$$$$
>  <SEQUENCE ENTRY>
FAGAEFCGPVGV

>  <ASSAY TARGET>
Saccharomyces cerevisiae

>  <protein stability index>
0.629

$$$$
>  <SEQUENCE ENTRY>
PHPRFYPSTPPP

>  <ASSAY TARGET>
Saccharomyces cerevisiae

>  <protein stability index>
0.648

$$$$
>  <SEQUENCE ENTRY>
SREQANTVYRLI

>  <ASSAY TARGET>
Saccharomyces cerevisiae

>  <protein stability index>
0.376

$$$$
>  <SEQUENCE ENTRY>
VDVSVLVGLNFV

>  <ASSAY TARGET>
Saccharomyces cerevisiae

>  <protein stability index>
0.797

$$$$
>  <SEQUENCE ENTRY>
VGDRCDECGFWA

>  <ASSAY TARGET>
Saccharomyces cerevisiae

>  <protein stability index>
0.699

$$$$
>  <SEQUENCE ENTRY>
VVVRRSEVGGRV

>  <ASSAY TARGET>
Saccharomyces cerevisiae

>  <protein stability index>
0.65

$$$$
>  <SEQUENCE ENTRY>
HNVLVYCGCALG

>  <ASSAY TARGET>
Saccharomyces cerevisiae

>  <protein stability index>
0.603

$$$$
>  <SEQUENCE ENTRY>
LGFVADLFVWSV

>  <ASSAY TARGET>
Saccharomyces cerevisiae

>  <protein stability index>
0.673

$$$$
>  <SEQUENCE ENTRY>
WGVGGVLEVLLG

>  <ASSAY TARGET>
Saccharomyces cerevisiae

>  <protein stability index>
0.522

$$$$
>  <SEQUENCE ENTRY>
PSLLPLLPLPPP

>  <ASSAY TARGET>
Saccharomyces cerevisiae

>  <protein stability index>
0.685

$$$$

----------
# Test system: Saccharomyces cerevisiae
# EXPERIMENT SUMMARY: protein stability index of tFT-peptide fusion (C-terminal peptide) (PSI (0-1 scale)); higher = more stable (slower turnover)
# CONDITION DETAILS: genetic background: wild type; temperature: 30 C

>  <SEQUENCE ENTRY>
GCLWRGARALGP

>  <protein stability index>
0.687

$$$$
>  <SEQUENCE ENTRY>
REGRRSVWGVSW

>  <protein stability index>
0.685

$$$$
>  <SEQUENCE ENTRY>
SPFSPLPSPRPR

>  <protein stability index>
0.723

$$$$
>  <SEQUENCE ENTRY>
KKTKKKKQTKRK

>  <protein stability index>
0.677

$$$$
>  <SEQUENCE ENTRY>
PRPRSPSPPLPP

>  <protein stability index>
0.705

$$$$
>  <SEQUENCE ENTRY>
SERERYKKNEKV

>  <protein stability index>
0.643

$$$$
>  <SEQUENCE ENTRY>
TPLPLPPPRPSP

>  <protein stability index>
0.685

$$$$
>  <SEQUENCE ENTRY>
LRPPFFLSPLPS

>  <protein stability index>
0.728

$$$$
>  <SEQUENCE ENTRY>
GACGSTLPASSR

>  <protein stability index>
0.668

$$$$
>  <SEQUENCE ENTRY>
LYRPFTAVPPSI

>  <protein stability index>
0.816

$$$$
>  <SEQUENCE ENTRY>
KKKQKKKKHEQK

>  <protein stability index>
0.7

$$$$

Hey, just so you know, these numbers are from the supplement of paper PMC10724198.
